Target: SOS1 (Homo sapiens (Human))
Sequence (Q07889 564-1049): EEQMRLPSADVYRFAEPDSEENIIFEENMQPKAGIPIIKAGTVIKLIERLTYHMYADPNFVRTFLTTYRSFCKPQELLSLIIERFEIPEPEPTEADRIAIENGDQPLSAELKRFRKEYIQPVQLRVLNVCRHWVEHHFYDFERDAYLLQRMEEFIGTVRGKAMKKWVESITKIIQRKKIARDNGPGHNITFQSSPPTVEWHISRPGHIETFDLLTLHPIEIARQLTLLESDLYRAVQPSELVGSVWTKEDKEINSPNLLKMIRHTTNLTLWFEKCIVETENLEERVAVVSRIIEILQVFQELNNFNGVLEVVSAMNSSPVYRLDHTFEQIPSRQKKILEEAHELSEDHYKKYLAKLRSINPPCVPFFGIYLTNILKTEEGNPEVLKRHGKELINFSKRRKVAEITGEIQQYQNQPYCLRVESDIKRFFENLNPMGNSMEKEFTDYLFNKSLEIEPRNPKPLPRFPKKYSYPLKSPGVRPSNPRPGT
Assay: Ras-SOS interaction assay (HTRF), K-Ras G13D utilized
Format: binding
Conditions: K-Ras G13D, read-out: SOS1 IC50
pIC50: −log10 of the molar value.
Catalogue of pIC50 values

Below, each entry is followed by its recorded pIC50 result.
SMILES_RECORD: C[C@H]1Nc2ncnc3c2cc(C2CCS(=O)(=O)CC2)c(=O)n3CCCOCCCN2CCC(CC2)CC(F)(F)c2cccc1c2
READING: > 7.00
--
SMILES_RECORD: C[C@H]1Nc2ncnc3c2cc(C2(C#N)CC2)c(=O)n3CCCC(=O)N(C)CCN2CCC(CC2)C(F)(F)c2cccc1c2
READING: > 7.00
--
SMILES_RECORD: Cc1nc2c3cc(C4(C#N)CC4)c(=O)n(c3n1)CCCC/C=C\CN1CCC(CC1)C(F)(F)c1cccc(c1F)[C@@H](C)N2
READING: > 7.00
--
SMILES_RECORD: C[C@H]1Nc2ncnc3c2cc(C2(C#N)CC2)c(=O)n3CC(=O)NCCC[C@H](C)N2CCC(CC2)C(F)(F)c2cccc1c2F
READING: > 7.00
--
SMILES_RECORD: CC(C)N1CCC(c2cc3c4ncnc3n(c2=O)CCCC/C=C/CN2CCC(CC2)C(F)(F)c2cccc(c2)[C@@H](C)N4)CC1
READING: > 7.00

GET /value?item= C[C@H]1Nc2ncnc3c2cc(C2CCS(=O)(=O)CC2)c(=O)n3CCCCCCCN2CCC(CC2)C(F)(F)c2cccc1c2 &field=pIC50 returns > 7.00
